Assay: NCI Yeast Anticancer Drug Screen. Data for the sgs1 mgt1 strain (AID 161);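 also: 0% = growth of cultures given vehicle only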
Conditions: S. cerevisiae sgs1 mgt1 strain, at 50.0 µM, stronger effect = higher value
About 79,000 compounds went through this panel and 15% of them were active in at least one assay; those are over-represented in the sample as a whole.
reported.metric: growth inhibition (%)

[[record]]
compound = "Cc1cc2nc3c(=O)[nH]c(=O)nc-3n(CCN(CCO)CCO)c2cc1Cl"
reported_metric = "growth inhibition"
recorded_value = 48.3

[[record]]
compound = "CC(=O)N(C(C)=O)n1c(-c2ccccc2)n[nH]c1=O"
reported_metric = "growth inhibition"
recorded_value = -14.3

[[record]]
compound = "NNC(=O)COc1ccc(Br)cc1Br"
reported_metric = "growth inhibition"
recorded_value = -5.15

[[record]]
compound = "COc1ccc(F)cc1N"
reported_metric = "growth inhibition"
recorded_value = 5.15

[[record]]
compound = "Cn1c(=O)c2c(nc(NCCOC(=S)S)n2C)n(C)c1=O"
reported_metric = "growth inhibition"
recorded_value = -10.3

[[record]]
compound = "O=c1[nH]nc(Sc2ccccc2)c2nncn12"
reported_metric = "growth inhibition"
recorded_value = -5.45

[[record]]
compound = "COc1ccc2c(c1)[n+]([O-])c(/C(C)=N/NC(N)=S)c(C)[n+]2[O-]"
reported_metric = "growth inhibition"
recorded_value = 41.6

[[record]]
compound = "COc1ccc(C(=O)C(C)(c2nc3n(c2O)C(=N)N=N3)c2nc3n(c2O)C(=N)N=N3)cc1 (stereo not given)"
reported_metric = "growth inhibition"
recorded_value = 0.75

[[record]]
compound = "COc1ccc(C(O)Cc2ccccc2)cc1 (stereo not given)"
reported_metric = "growth inhibition"
recorded_value = 5.6

[[record]]
compound = "C(=C1\\COC(c2ccccc2)=N1)/c1ccc2c(c1)OCO2"
reported_metric = "growth inhibition"
recorded_value = 13.8

[[record]]
compound = "CC(C)N(CC(=O)NC(=O)c1ccccc1)Cc1ccccc1"
reported_metric = "growth inhibition"
recorded_value = -1.95

[[record]]
compound = "Cc1cc(N(CCC#N)CCC#N)ccc1/C=C1N=C(/C=C\\c2ccccc2)N(NC(=O)CC(=O)Nc2ccccc2Cl)C\\1=O"
reported_metric = "growth inhibition"
recorded_value = 1.55

[[record]]
compound = "COC(=O)C1=C(C)NC(C)=C(C(=O)OC)C1c1cccc(NO)c1"
reported_metric = "growth inhibition"
recorded_value = 47.4

[[record]]
compound = "CN(C)N=Nc1cccc(Cl)c1"
reported_metric = "growth inhibition"
recorded_value = 10.3

[[record]]
compound = "CCC1SCC(=O)N1c1nncs1 (stereo not given)"
reported_metric = "growth inhibition"
recorded_value = 4.55

[[record]]
compound = "O=C(Cc1ccccc1)c1ccccc1C(=O)NCc1ccccc1"
reported_metric = "growth inhibition"
recorded_value = 1.1

[[record]]
compound = "O=C(O)c1cc(-c2c(Cl)cccc2Cl)nc2cc3ccccc3cc12"
reported_metric = "growth inhibition"
recorded_value = 28.9

[[record]]
compound = "c1ccc(C(=NN(CCCCN(N=C(c2ccccc2)c2ccccc2)c2ccccc2)c2ccccc2)c2ccccc2)cc1"
reported_metric = "growth inhibition"
recorded_value = -11.6

[[record]]
compound = "OCC(CCl)(CCl)CCl"
reported_metric = "growth inhibition"
recorded_value = 10.8

[[record]]
compound = "CC(=O)OCC(=O)[C@@]1(O)CC[C@H]2[C@@H]3C[C@H](C)C4=CC(=O)C=C[C@]4(C)[C@@]3(Br)[C@@H](O)C[C@@]21C"
reported_metric = "growth inhibition"
recorded_value = 38.3

[[record]]
compound = "O=[N+]([O-])C(Cl)C(Cl)C(Cl)=C(Cl)Cl (stereo not given)"
reported_metric = "growth inhibition"
recorded_value = 51

[[record]]
compound = "Cc1cc2c(C(C)C)c(O)c(O)c(C=Nc3ccc(N=Nc4ccccc4)cc3)c2c(O)c1-c1c(C)cc2c(C(C)C)c(O)c(O)c(C=Nc3ccc(N=Nc4ccccc4)cc3)c2c1O"
reported_metric = "growth inhibition"
recorded_value = -6.3

[[record]]
compound = "Brc1ccc2noc(-c3ccccc3)c2c1"
reported_metric = "growth inhibition"
recorded_value = 31.6

[[record]]
compound = "O=C(/C=N\\O)c1ccccc1[N+](=O)[O-]"
reported_metric = "growth inhibition"
recorded_value = 7.6

[[record]]
compound = "COC(=O)c1cccnc1F"
reported_metric = "growth inhibition"
recorded_value = -14.7

[[record]]
compound = "CCOC(=O)C1=C(Nc2ccc(F)cc2)C(=O)N(CC)C1"
reported_metric = "growth inhibition"
recorded_value = 24.4

[[record]]
compound = "CC(=O)C1CCC2C3CCC4CC5(CCC4(C)C3C(=O)CC12C)NC(C(=O)O)CS5 (stereo not given)"
reported_metric = "growth inhibition"
recorded_value = 5.85

[[record]]
compound = "N#C/C(=N\\NC(=O)c1ccccc1)c1ccccc1"
reported_metric = "growth inhibition"
recorded_value = -3.7

[[record]]
compound = "CN(CC(=O)O)Cc1ccccc1"
reported_metric = "growth inhibition"
recorded_value = 10.5

[[record]]
compound = "CSC1(C)C(=O)Nc2cc(C(F)(F)F)ccc21 (stereo not given)"
reported_metric = "growth inhibition"
recorded_value = 1.65

